List of Euclidean distance values.
system: FB; test: Euclidean distance of Cell Painting phenotypic profile (signed KS, 77 features) to DMSO centroid (dimensionless distance); 5 or 10 uM (library dependent); higher = stronger phenotypic change vs DMSO (phenoactivity); details: 48 h
Structures can show the parent of a compound that is named as a salt.
Reported endpoint: Euclidean distance

{"Compound": "NC(=O)Nc1sc(-c2ccc(F)cc2)cc1C(N)=O", "Study target": "FB", "Reported endpoint": "Euclidean distance", "Quantitative readout": 3.25}
{"Compound": "O=C1OC(CN2CCOCC2)CN1/N=C/c1ccc([N+](=O)[O-])o1 (stereo unspecified) [Furaltadone HCl]", "Study target": "FB", "Reported endpoint": "Euclidean distance", "Quantitative readout": 1.24}
{"Compound": "COc1ccc(S(=O)(=O)Nc2cccnc2Nc2ccc(O)cc2)cc1", "Study target": "FB", "Reported endpoint": "Euclidean distance", "Quantitative readout": 2.99}
{"Compound": "Cc1nc(-c2ccc(OCC(C)C)c(C#N)c2)sc1C(=O)O", "Study target": "FB", "Reported endpoint": "Euclidean distance", "Quantitative readout": 0.514}
{"Compound": "NC(=O)c1cn(Cc2c(F)cccc2F)nn1 [Rufinamide]", "Study target": "FB", "Reported endpoint": "Euclidean distance", "Quantitative readout": 1.23}
{"Compound": "C[C@H](NC(=O)CCc1nc2ccccc2c(=O)[nH]1)c1ccccc1", "Study target": "FB", "Reported endpoint": "Euclidean distance", "Quantitative readout": 1.04}
{"Compound": "COc1ccc(-c2cc(=O)c3c(O)cc(O[C@@H]4O[C@H](CO[C@@H]5O[C@@H](C)[C@H](O)[C@@H](O)[C@H]5O)[C@@H](O)[C@H](O)[C@H]4O)cc3o2)cc1O", "Study target": "FB", "Reported endpoint": "Euclidean distance", "Quantitative readout": 0.778}
{"Compound": "Oc1cc(O)cc(/C=C/c2ccc(O)c(O)c2)c1", "Study target": "FB", "Reported endpoint": "Euclidean distance", "Quantitative readout": 1.3}
{"Compound": "COC1=CC(c2cc3ccccc3[nH]2)=N/C1=C\\c1[nH]c(C)cc1C [Obatoclax Mesylate (GX15-070)]", "Study target": "FB", "Reported endpoint": "Euclidean distance", "Quantitative readout": 4.82}
{"Compound": "CN(C)CCOC(=O)COc1ccc(Cl)cc1 [Meclofenoxate (Centrophenoxine) HCl]", "Study target": "FB", "Reported endpoint": "Euclidean distance", "Quantitative readout": 0.93}
{"Compound": "CC(=O)O[C@@]12CO[C@@H]1C[C@H](O)[C@@]1(C)C(=O)[C@H](O)C3=C(C)[C@@H](OC(=O)[C@H](O)[C@@H](NC(=O)OC(C)(C)C)c4ccccc4)C[C@@](O)([C@@H](OC(=O)c4ccccc4)[C@H]21)C3(C)C [Docetaxel]", "Study target": "FB", "Reported endpoint": "Euclidean distance", "Quantitative readout": 2.64}

----------
List of Euclidean distance values.
test system: OVCAR4; test: Euclidean distance of Cell Painting phenotypic profile (signed KS, 77 features) to DMSO centroid (dimensionless distance); 5 or 10 uM (library dependent); higher = stronger phenotypic change vs DMSO (phenoactivity); settings: 48 h
Reported endpoint: Euclidean distance

{"Compound": "CC1(C)CC(=O)c2c(C(F)(F)F)nn(-c3ccc(C(N)=O)c(N[C@H]4CC[C@H](OC(=O)CN)CC4)c3)c2C1", "Quantitative readout": 2.62}
{"Compound": "CNC(=O)c1ccccc1Nc1nc(Nc2ccc(N3CCOCC3)cc2OC)ncc1Cl", "Quantitative readout": 3.5}
{"Compound": "O=C(NS(=O)(=O)c1ccc(Br)s1)c1ccc(Cl)cc1Cl", "Quantitative readout": 1.66}
{"Compound": "O=C(CCCCCCNC(=O)c1cnc(N(c2ccccc2)c2ccccc2)nc1)NO", "Quantitative readout": 2.18}
{"Compound": "NC(=O)Cc1cccc(C(=O)c2ccccc2)c1N", "Quantitative readout": 0.874}
{"Compound": "O=c1[nH]c2ccccc2n1CCN1CCN(c2cccc(C(F)(F)F)c2)CC1", "Quantitative readout": 1.35}
{"Compound": "N#Cc1cnc(Nc2cc(NC[C@H]3CNCCO3)c(C(F)(F)F)cn2)cn1", "Quantitative readout": 1.99}
{"Compound": "OC[C@H]1O[C@@H](Oc2ccc(O)cc2)[C@H](O)[C@@H](O)[C@@H]1O", "Quantitative readout": 1.73}
{"Compound": "Nc1nc(NC2CC2)c2ncn([C@H]3C=C[C@@H](CO)C3)c2n1", "Quantitative readout": 1.25}
{"Compound": "CN[C@@H]1[C@@H](O)[C@@H](O[C@@H]2[C@@H](O)[C@H](O[C@H]3O[C@H](CN)[C@@H](O)[C@H](O)[C@H]3O)[C@@H](N)C[C@H]2NC(=O)[C@@H](O)CN)OC[C@]1(C)O [Isepamicin Sulphate]", "Quantitative readout": 1.65}
